Target: T1, Mad1^CTD Q627A (human, UniProt Q9Y6D9 597-718, Q627A)
T1 sequence: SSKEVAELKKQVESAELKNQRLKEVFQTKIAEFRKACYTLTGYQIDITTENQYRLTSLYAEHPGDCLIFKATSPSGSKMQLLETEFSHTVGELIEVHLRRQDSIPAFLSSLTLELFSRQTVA
Assay: ITC
Where no end group is shown, it is not given here. [ ]: non-standard residue; d: D form. pT = C[C@@H](OP(=O)(O)O)[C@H](N)C(=O)O; pS = N[C@@H](COP(=O)(O)O)C(=O)O
Quantity: pKd
pKd field: float, defined as -log10 of concentration (mol/L).

Query: Quickly give me recorded pKd for KVQP[pS]P[pT]VHTKEALGFIMNMFQAPTS [doubly phosphorylated Bub1^CD1 peptide (pSer459-pThr461)]
Response: 5.62
